assay-target: geranylgeranyl protein transferase (GGPT) I (Rattus norvegicus, UniProt P53610+Q04631)
Construct: were partially purified from rat brain by ammonium sulfate fractionation followed by Q-Sepharose
experiment: Inhibition of geranylgeranyl protein transferase I (Ras-CVLL as acceptor)
Type: biochemical
assay-context: enzyme inhibition
measured-attribute: IC50

**Query** Print geranylgeranyl protein transferase (GGPT) I (Rattus norvegicus, UniProt P53610+Q04631) IC50 for CN1CCC(CC(=O)N2CCC(=C3c4ccc(Cl)cc4CCc4cc(Br)cnc43)CC2)CC1 .
**Result** 1000 µM

More entries:
**Query** Report IC50 under test system geranylgeranyl protein transferase (GGPT) I (Rattus norvegicus, UniProt P53610+Q04631) for O=C(Cc1ccncc1)N1CCC(=C2c3ccc(Cl)cc3CCc3cc(Cl)cnc32)CC1 .
**Result** > 42 µM

**Query** Report measured IC50 on geranylgeranyl protein transferase (GGPT) I (Rattus norvegicus, UniProt P53610+Q04631); entry: O=C(Nc1ccccn1)N1CCN(C2c3ccc(Cl)cc3CCc3cccnc32)CC1 (centres unmarked)
**Result** > 46 µM

**Query** Please tell me the measured IC50 for O=C(Cc1cc[n+]([O-])cc1)N1CCC(=C2c3ccc(Cl)cc3CCc3cc(I)cnc32)CC1 ; system: geranylgeranyl protein transferase (GGPT) I (Rattus norvegicus, UniProt P53610+Q04631).
**Result** 1000 µM

**Query** Print geranylgeranyl protein transferase (GGPT) I (Rattus norvegicus, UniProt P53610+Q04631) IC50 for O=C1CCC(C(=O)N2CCC(=C3c4ccc(Cl)cc4CCc4cccnc43)CC2)CC1 .
**Result** > 46 µM

**Query** Specify the recorded IC50 for O=C(c1ccc(O)c(O)c1)N1CCC(=C2c3ccc(Cl)cc3CCc3cccnc32)CC1 , system: geranylgeranyl protein transferase (GGPT) I (Rattus norvegicus, UniProt P53610+Q04631).
**Result** 42 µM

**Query** Determine reported IC50 for O=C(CN1C(=O)c2ccccc2C1=O)N1CCN(C2c3ccc(Cl)cc3CCc3cccnc32)CC1 (centres unmarked) ; test system: geranylgeranyl protein transferase (GGPT) I (Rattus norvegicus, UniProt P53610+Q04631).
**Result** > 50 µM

**Query** Send back geranylgeranyl protein transferase (GGPT) I (Rattus norvegicus, UniProt P53610+Q04631) IC50 of CC(C)(C(=O)N1CCC(=C2c3ccc(Cl)cc3CCc3cccnc32)CC1)c1ccccc1 only.
**Result** > 40 µM

====

assay-target: farnesyl protein transferase (FPT), partially purified from rat brain (Rattus norvegicus, UniProt Q02293+Q04631)
Construct: were partially purified from rat brain by ammonium sulfate fractionation followed by Q-Sepharose
experiment: Inhibition of farnesyl protein transferase (transfer of [3H]farnesyl to Ras-CVLS)
Type: biochemical
assay-context: enzyme inhibition; read-out: FPT IC50
measured-attribute: IC50
Respond with the figure and its unit, in that order.

Consider the worked cases shown below.
**Query** State, in one line, measured IC50 of COC(=O)N1CCCC(CC(=O)N2CCN(C3c4ccc(Cl)cc4CCc4cccnc43)CC2)C1 (centres unmarked) [Example 430-A]
**Result** 7000 nM

**Query** Recall and state the measured IC50 for COC(=O)c1ccc2c(c1)CCc1cccnc1C2=C1CCN(C(=O)Cc2ccncc2)CC1 [Example 434-A] .
**Result** 3500 nM

**Query** Quickly give me recorded IC50 for CC(C)(C(=O)N1CCN(C2c3ccc(Cl)cc3CCc3cccnc32)CC1)c1cc[n+]([O-])cc1 (centres unmarked) [Example 425-A]
**Result** 2200 nM

Next:
**Query** Quick one: give measured IC50 for COC(=O)N1CCC(CC(=O)N2CCN(C3c4ccc(Cl)cc4CCc4cccnc43)CC2)CC1 (centres unmarked) [Example 430]
**Result** 1300 nM

**Query** Return the recorded IC50 value; entry: O=C1Cc2cccnc2C(=C2CCN(C(=O)Cc3cc[n+]([O-])cc3)CC2)c2ccc(Cl)cc21 [Example 418]
**Result** 1850 nM

**Query** Name the recorded IC50 of the item NC(=O)N1CCCC(CC(=O)N2CCN(C3c4ccc(Cl)cc4CCc4cccnc43)CC2)C1 (centres unmarked) [Example 431-F] in your answer.
**Result** 1750 nM

**Query** Using known records, supply IC50 for O=C(c1ccc(O)cc1)N1CCC(=C2c3ccc(Cl)cc3CCc3cccnc32)CC1 [Example 7]
**Result** 2300 nM

**Query** Please give the documented IC50 of CN1CCCC(CC(=O)N2CCC(=C3c4ccc(Cl)cc4CCc4cc(Br)cnc43)CC2)C1 (centres unmarked) [Example 400-K]
**Result** 210 nM

====

Reported pIC50 by item:
assay-target: farnesyl protein transferase (FPT), partially purified from rat brain (Rattus norvegicus, UniProt Q02293+Q04631)
Construct: were partially purified from rat brain by ammonium sulfate fractionation followed by Q-Sepharose
experiment: Inhibition of farnesyl protein transferase (transfer of [3H]farnesyl to Ras-CVLS)
Type: biochemical
assay-context: enzyme inhibition; read-out: FPT IC50
Entry type: numeric. Quantity: pIC50, the -log10 of concentration in molar units.

Example entries begin here.
**Query** Look up and state reported pIC50 for O=C(Cc1ccncc1)N1CCN(C2c3ccc(Cl)cc3CCc3cc(Br)cnc32)CC1 (stereo not shown)
**Result** 7.92

**Query** Please supply the value of reported pIC50 for the item O=C(Cc1ccncc1)N1CCC(=C2c3ccc(Cl)cc3CCc3cc(Cl)ccc32)CC1
**Result** 6.09

**Query** Tell us which pIC50 value is on record for CN1CCC(CC(=O)N2CCN([C@@H]3c4ccc(Cl)cc4CCc4cccnc43)CC2)CC1
**Result** 5.74

Consider now this further compound.
**Query** Please indicate pIC50 recorded for O=C(Nc1cc[n+]([O-])cc1)N1CCN(C2c3ccc(Cl)cc3CCc3cc(Br)cnc32)CC1 (stereo not shown)
**Result** 6.68

====

# key: entry, value: melting point

**Query** Consider the compound O=C(Cc1cccnc1)N1CCC(=C2c3ccc(Cl)cc3CCc3cc(Br)cnc32)CC1 [Example 247] and give its recorded melting point.
**Result** 92 to 93 °C

**Query** Please give the documented melting point of O=C(Cc1cccc([N+](=O)[O-])c1)N1CCC(=C2c3ccc(Cl)cc3CCc3cccnc32)CC1 [Example 45]
**Result** 94.3 to 95.5 °C

**Query** Please look at this compound and report its melting point: O=C(Cc1ccc(Br)cc1)N1CCC(=C2c3ccc(Cl)cc3CCc3cccnc32)CC1 [Example 43]
**Result** 93.3 to 94.6 °C

**Query** Query melting point for CN1C(=O)C(CCC(=O)N2CCC(=C3c4ccc(Cl)cc4CCc4cccnc43)CC2)NC1=S (centres unmarked) [Example 23]
**Result** 205 to 207 °C

====

// IC50 lookup, one value per entry
assay-target: farnesyl protein transferase (FPT), partially purified from rat brain (Rattus norvegicus, UniProt Q02293+Q04631)
Construct: were partially purified from rat brain by ammonium sulfate fractionation followed by Q-Sepharose
experiment: Inhibition of farnesyl protein transferase (transfer of [3H]farnesyl to Ras-CVLS)
Format: biochemical
assay-context: Ras-CVLS farnesylation, partially purified rat brain FPT; read-out: FPT IC50
Write it as a number; the unit nM goes unstated.

Here is how some compounds turned out for IC50.
**Query** Report IC50, nothing else, for this compound: CN1CCCC(C(=O)N2CCN(C3c4ccc(Cl)cc4CCc4cccnc43)CC2)C1 (centres unmarked) [Example 195]
**Result** 6800

**Query** Report IC50, nothing else, for this compound: O=C(Cc1ccccc1[N+](=O)[O-])N1CCC(=C2c3ccc(Cl)cc3CCc3cccnc32)CC1 [Example 126]
**Result** 2900

**Query** Output IC50 of CN1CCC(CC(=O)N2CCC(C3c4ccc(Cl)cc4CCc4cc(Br)cnc43)CC2)CC1 (centres unmarked) [Example 400-J]
**Result** 140

**Query** Supply reported IC50 belonging to this compound: O=C(C1CCC(O)CC1)N1CCC(=C2c3ccc(Cl)cc3CCc3cccnc32)CC1 (centres unmarked) [Example 97]
**Result** 4400

**Query** Give the measured IC50 for CC(=O)N1CCC(=C2c3ccncc3CCc3cc(Cl)ccc32)CC1 [Example 143]
**Result** 35400

Others:
**Query** Fill in reported IC50 for this entry: O=C(Cc1cccc(O)c1)NCC(=O)N1CCN(C2c3ccc(Cl)cc3CCc3cccnc32)CC1 (centres unmarked) [Example 211]
**Result** 8170

**Query** Tell me its IC50 given O=C(Cc1ccncc1)N1CCC(=C2c3ccccc3CCc3ccccc32)CC1 [Example 87] as the entry.
**Result** 1140

**Query** Annotate the compound CCC(C(=O)N1CCC(=C2c3ccc(Cl)cc3CCc3cccnc32)CC1)c1ccccc1 (centres unmarked) [Example 48] with its measured IC50.
**Result** 1300

**Query** Give me measured IC50, please, for this compound: O=C(Cc1cccnc1)N1CCC(=C2c3ccc(Cl)cc3CCc3c(Cl)ccnc32)CC1 [Example 250]
**Result** 950

**Query** Identify IC50 associated with the compound O=C(c1ccc(NS(=O)(=O)C(F)(F)F)cc1)N1CCC(=C2c3ccc(Cl)cc3CCc3cccnc32)CC1 [Example 111]
**Result** 8500
